experimental-target: recombinant CD73 (Homo sapiens (Human), UniProt P21589)
Sequence (P21589 27-547): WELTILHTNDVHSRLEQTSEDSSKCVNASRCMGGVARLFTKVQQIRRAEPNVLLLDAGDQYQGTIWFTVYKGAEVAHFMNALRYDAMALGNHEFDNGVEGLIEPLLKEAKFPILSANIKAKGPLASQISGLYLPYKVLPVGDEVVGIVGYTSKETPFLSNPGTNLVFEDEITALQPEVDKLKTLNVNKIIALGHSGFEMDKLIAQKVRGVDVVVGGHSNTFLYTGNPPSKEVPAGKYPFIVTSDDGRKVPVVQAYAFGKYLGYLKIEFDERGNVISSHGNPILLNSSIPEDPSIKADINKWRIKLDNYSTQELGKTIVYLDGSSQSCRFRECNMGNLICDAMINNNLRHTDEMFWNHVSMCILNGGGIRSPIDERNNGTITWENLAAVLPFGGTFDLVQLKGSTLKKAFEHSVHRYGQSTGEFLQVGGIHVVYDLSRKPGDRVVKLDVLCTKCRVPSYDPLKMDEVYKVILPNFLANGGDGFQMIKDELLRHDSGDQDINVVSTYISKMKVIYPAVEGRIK
measurement-description: Assay 1: Inhibition of the CD73 enzyme in vitro (0.5 nM CD73, 30 min room temperature, Malachite Green)
Format: biochemical
settings: 0.5 nM CD73, 30 minutes at room temperature
Procedure: For measurements of soluble CD73 enzyme activity, recombinant CD73 was obtained from R&D Systems, Cat. No. 5795-EN-010. […] Reactions were allowed to proceed for 30 minutes at room temperature before the addition of 100 μL Malachite Green (Cell Signaling Technology, Cat. No. 12776). After 5 minutes at room temperature, absorbance at 630 nm was determined on a microplate spectrophotometer. The concentration of inorganic phosphate was determined using a phosphate standard curve.
pIC50: −log10 of the molar value.
value-kind: pIC50

| compound | experimental-target | observed-value |
| --- | --- | --- |
| C#C[C@@]1(O)[C@@H](CO[C@@](Cc2ccccc2)(C(=O)O)c2cscn2)O[C@@H](n2cnc3c(N)nc(Cl)nc32)[C@@H]1O (single isomer, unassigned) | recombinant CD73 (Homo sapiens (Human), UniProt P21589) | 7.68 |
| C#C[C@@]1(O)[C@@H](CO[C@](Cc2ccccc2)(C(=O)O)c2nnn[nH]2)O[C@@H](n2cnc3c(N)nc(Cl)nc32)[C@@H]1O | recombinant CD73 (Homo sapiens (Human), UniProt P21589) | 8.15 |
| C#C[C@@]1(O)[C@@H](COC(Cc2cccc(C(F)(F)F)c2)(C(=O)O)C(=O)O)O[C@@H](n2cnc3c(N)nc(Cl)nc32)[C@@H]1O | recombinant CD73 (Homo sapiens (Human), UniProt P21589) | 8.52 |
| C[C@@]1(O)[C@@H](COC(Cc2ccc(-c3ccccc3C(=O)O)cc2)(C(=O)O)c2nnn[nH]2)O[C@@H](n2cnc3c(N)nc(Cl)nc32)[C@@H]1O (some centres unmarked) | recombinant CD73 (Homo sapiens (Human), UniProt P21589) | 6.69 |
| Nc1nc(Cl)nc2c1ncn2[C@@H]1O[C@H](COC(C(=O)O)C(=O)O)[C@](O)(C#Cc2ccnn2Cc2ccccc2)[C@H]1O | recombinant CD73 (Homo sapiens (Human), UniProt P21589) | 8.70 |
| C#C[C@@]1(O)[C@@H](COP(=O)(O)CP(=O)(O)O)O[C@@H](n2cnc3c(N)nc(Cl)nc32)[C@@H]1O | recombinant CD73 (Homo sapiens (Human), UniProt P21589) | 6.83 |
| C#C[C@@]1(O)[C@@H](COC(C(=O)OCC)P(=O)(O)O)O[C@@H](n2cnc3c(N4CCOCC4)nc(Cl)nc32)[C@@H]1O (some centres unmarked) | recombinant CD73 (Homo sapiens (Human), UniProt P21589) | 7.57 |
| C#C[C@@]1(O)[C@@H](COC(C(=O)NO)c2cscn2)O[C@@H](n2cnc3c(N)nc(Cl)nc32)[C@@H]1O (single isomer, unassigned) [Example 185] | recombinant CD73 (Homo sapiens (Human), UniProt P21589) | 4.93 |
| C#C[C@@]1(O)[C@@H](COCP(=O)(O)O)O[C@@H](n2cnc3c(NCc4ccccc4)nc(Cl)nc32)[C@@H]1O | recombinant CD73 (Homo sapiens (Human), UniProt P21589) | 7.00 |
| C#C[C@@]1(O)[C@@H](COC(Cc2cccc(Cl)c2)(C(=O)O)C(=O)O)O[C@@H](n2cnc3c(N)nc(Cl)nc32)[C@@H]1O | recombinant CD73 (Homo sapiens (Human), UniProt P21589) | 8.52 |
| C#C[C@@]1(O)[C@@H](COC(Cc2cccc(OC(F)(F)F)c2)(C(=O)O)C(=O)O)O[C@@H](n2cnc3c(N)nc(Cl)nc32)[C@@H]1O | recombinant CD73 (Homo sapiens (Human), UniProt P21589) | 8.30 |
| C#C[C@@]1(O)[C@@H](COC(Cc2ccccc2)(C(=O)O)C(=O)O)O[C@@H](n2cnc3c(NC4CCOCC4)nc(Cl)nc32)[C@@H]1O | recombinant CD73 (Homo sapiens (Human), UniProt P21589) | 8.52 |
| C#C[C@@]1(O)[C@@H](COC(Cc2ccccc2)(C(=O)O)C(=O)O)O[C@@H](n2cnc3c(NCc4ccccc4)nc(Cl)nc32)[C@@H]1O | recombinant CD73 (Homo sapiens (Human), UniProt P21589) | 9.00 |
| C#C[C@@]1(O)[C@@H](CO[C@](C#N)(Cc2ccccc2)C(=O)O)O[C@@H](n2cnc3c(N)nc(Cl)nc32)[C@@H]1O (single isomer, unassigned) | recombinant CD73 (Homo sapiens (Human), UniProt P21589) | 5.73 |
| C#C[C@@]1(O)[C@@H](CO[C@@](Cc2ccccc2)(C(=O)O)c2nnn[nH]2)O[C@@H](n2cnc3c(N)nc(Cl)nc32)[C@@H]1O | recombinant CD73 (Homo sapiens (Human), UniProt P21589) | 7.60 |
| C#C[C@@]1(O)[C@@H](COC(C(=O)O)c2cscn2)O[C@@H](n2cnc3c(N)nc(Cl)nc32)[C@@H]1O (some centres unmarked) | recombinant CD73 (Homo sapiens (Human), UniProt P21589) | 6.49 |
| C#C[C@@]1(O)[C@@H](COC(Cc2ccccc2)(C(=O)O)C(=O)O)O[C@@H](n2cnc3c(NCCN(CC)CC)nc(Cl)nc32)[C@@H]1O | recombinant CD73 (Homo sapiens (Human), UniProt P21589) | 8.82 |
| C#C[C@@]1(O)[C@@H](COC(Cc2ccccc2)(C(=O)O)c2csc(C(=O)O)n2)O[C@@H](n2cnc3c(N)nc(Cl)nc32)[C@@H]1O (some centres unmarked) | recombinant CD73 (Homo sapiens (Human), UniProt P21589) | 7.09 |
| C#C[C@@]1(O)[C@@H](COC(Cc2ccccc2)(C(=O)O)C(=O)O)O[C@@H](n2cnc3c(N4CCCC4)nc(Cl)nc32)[C@@H]1O | recombinant CD73 (Homo sapiens (Human), UniProt P21589) | 9.05 |
| CC[C@@]1(O)[C@@H](COC(C(=O)O)C(=O)O)O[C@@H](n2cnc3c(N)nc(Cl)nc32)[C@@H]1O | recombinant CD73 (Homo sapiens (Human), UniProt P21589) | 7.46 |
| Nc1nc(Cl)nc2c1ncn2[C@@H]1O[C@H](COC(C(=O)O)C(=O)O)[C@](O)(C#Cc2ccn(Cc3ccccc3)n2)[C@H]1O | recombinant CD73 (Homo sapiens (Human), UniProt P21589) | 8.52 |
| C#C[C@@]1(O)[C@@H](CO[C@@H](C(=O)O)c2csc(-c3ccccc3)n2)O[C@@H](n2cnc3c(N)nc(Cl)nc32)[C@@H]1O (single isomer, unassigned) | recombinant CD73 (Homo sapiens (Human), UniProt P21589) | 6.47 |
| C#C[C@@]1(O)[C@@H](COC(C(=O)O)S(=O)(=O)c2ccccc2)O[C@@H](n2cnc3c(NC4CCCC4)nc(Cl)nc32)[C@@H]1O (some centres unmarked) | recombinant CD73 (Homo sapiens (Human), UniProt P21589) | 5.80 |
